Hey, just so you know, these numbers are from paper PMC9108036.

# Assay: in vitro
# Assay type: cell-based
# Conditions: human
Observed Property: viability at 10 µM
Note to self: number, then unit, no commentary.

Name the reported viability at 10 µM value associated with the molecule O=c1[nH]cc(F)c(=O)[nH]1 [Fluorouracil] 97%

Next molecule up: Nc1nc(Cl)nc2c1ncn2[C@H]1C[C@H](O)[C@@H](CO)O1 [Cladribine] 108%

Next molecule up: Clc1ccc(COC(Cn2ccnc2)c2ccc(Cl)cc2Cl)cc1 (stereo not drawn) [Econazole] 88.2%

Next molecule up: CN(C)CCCN1c2ccccc2Sc2ccc(Cl)cc21 [Chlorpromazine] 88.6%

Next molecule up: CCCCC[C@H](O)/C=C/[C@H]1[C@H](O)CC(=O)[C@@H]1CCCCCCC(=O)O [Alprostadil] 100%

Next molecule up: CC(=O)O[C@@]12CO[C@@H]1C[C@H](O)[C@@]1(C)C(=O)[C@H](O)C3=C(C)[C@@H](OC(=O)[C@H](O)[C@@H](NC(=O)OC(C)(C)C)c4ccccc4)C[C@@](O)([C@@H](OC(=O)c4ccccc4)[C@H]21)C3(C)C [Docetaxel] 80.8%
